Cited source for all entries: ChEMBL document CHEMBL4513216

We begin with a simple list: items and their reported cytotoxicity at 10 µM.
- procedure text: Toxicity liver stage against HepG2, at 10uM
- Type: cell-based
- Design: test concentration 10 uM, cell line HepG2-A16-CD81EGFP
- measurement conditions: human, HepG2-A16-CD81EGFP cells; read-out: INHIBITION
readout: cytotoxicity at 10 µM (%)

O=C1CCCN1Cc1nnc2n1CCN(Cc1ccco1)CC2    3.39
CN(C)c1cc2c(nn1)CCN(C(=O)C1Cc3ccccc3O1)C2 (stereo unspecified)    -18.5
CCN(CC)C(=O)CC[C@@H]1CNC(=O)[C@@H]2C[C@H](NC(=O)C3CC3)CN12    5.76
CC(C)CC(=O)N1CCN(C(=O)NC(C)C)CC2(CC(=O)N(C)C2)C1 (stereo unspecified)    3.25
CC(C)[C@H]1CN(S(C)(=O)=O)C[C@@H]1NC(=O)c1ccnc(N)c1    8
COCC(O)CN1CCC(=O)N(CC(=O)C(C)(C)C)Cc2ccccc21 (stereo unspecified)    6.31
COc1ncc(C2(O)CCN(Cc3ccc(F)c(F)c3)CC2)c(OC)n1    -0.279
Cc1cccc(-c2nccn2C2CC(=O)N(C(C)C)C2)n1 (stereo unspecified)    5.62
CCn1cnnc1CNC(=O)N(C)C(C)c1cccs1 (stereo unspecified)    -15.9
CCCN1CCCn2nc(CNS(=O)(=O)c3cnn(CC)c3)cc2C1    -7.23
CCc1ncc(C(=O)N2CCN(c3nc(C)cc(OC)n3)CC2)s1    1.1
